- System: SNB-75 CNS
- Assay Notes: NCI tumour cell line growth inhibition, 48 h
Result Type: TGI

Ask: Tell me measured TGI for Nc1ncnc2c1c(-c1ccc(Oc3ccccc3)cc1)nn2C[C@@H]1SSC[C@@H]1O please.
Reply: 7.56 µM

====

- Tested on: DU-145 prostate
- Assay Notes: NCI tumour cell line growth inhibition, 48 h
Classify by measured TGI: YES if it is equal to or exceeds 6 µM, NO if it is smaller.

Sample answers from the record:
INSERT INTO assay_data (molecule, assigned_class) VALUES
  ('CO[P@]1(=O)O[C@@H](c2ccccc2)[C@H](O)[C@@]1(O)c1ccccc1', 'YES'),
  ('CN(C)C(=O)SC1=C(c2c(Cl)cccc2Cl)C(=O)c2ccccc21', 'NO'),
  ('NC(=O)c1cc(I)ccc1NC(=O)COc1ccccc1', 'YES'),
  ('CC(C)(C)CC(C)(C)c1ccc(OCCOCC[N+](C)(C)Cc2ccccc2)cc1', 'NO'),
  ('O=C(Nc1ccccc1O)c1ccc(CNC(=O)c2ccsc2Nc2ccnc(C(F)(F)F)c2)cc1', 'NO'),
  ('O=C1/C(=C\c2cccc(Oc3ccccc3)c2)SC(c2ccccc2)N1c1cccc([N+](=O)[O-])c1 (stereo not given)', 'YES'),
  ('O=C1CSc2nnc(CCCCCCCCc3nnc4n3NC(=O)CS4)n2N1', 'YES'),
  ('O=C(O)C1C2C=CC(O2)C1C(=O)Nc1ncccn1 (stereo not given)', 'YES'),
  ('O=C(O)C1C(C(=O)O)C2(Cl)C(Cl)=C(Cl)C1(Cl)C2(Cl)Cl.[Cd] (stereo not given)', 'YES');

Now for a further molecule.
Ask: Determine whether measured TGI meets or exceeds 6 µM for COc1ccc2cc(-c3c(-c4ccncc4)nc(-c4ccc(S(C)=O)cc4C)n3C)ccc2c1 (stereo not given)
Reply: YES
